Assay: CCTE_Shafer_MEA_dev_bursting_electrodes_number: CCTE's Neural Network Formation Assay for Number of Bursting Electrodes, Shafer Lab (AID 2284043);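 further: potency is for loss of bursting electrodes relative to DMSO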
Results filed as inconclusive are left out. The source made the active and inactive calls. How the source made its calls: active means hit-call score of the fitted dose curve at least 0.9, where 1 is the maximum; inconclusive means response in the unintended direction; inactive means score below 0.9.
RECORDED ENDPOINT: AC50

// worked examples, AC50 included
COMPOUND | MEASURED RESULT
ClC1(Cl)C2(Cl)C3(Cl)C4(Cl)C(Cl)(Cl)C5(Cl)C3(Cl)C1(Cl)C5(Cl)C24Cl (stereo unspecified) | 1.62 µM (active)
O=C1C2(Cl)C3(Cl)C4(Cl)C(Cl)(Cl)C5(Cl)C3(Cl)C1(Cl)C5(Cl)C24Cl (stereo unspecified) | 3.55 µM (active)
Cn1sc(Cl)cc1=O | 5.1 µM (active)
C=C(C)C(=O)[O][Sn]([CH2]CCC)([CH2]CCC)[CH2]CCC | 0.0199 µM (active)

Specify AC50 for CC(=O)[O][Hg][c]1ccccc1 and stop. 0.0108 µM (active)

----------
Assay: ACEA_ER_80hr: ACEA Biosciences xCELLigence Real-Time Cell Analysis on Estrogen Receptor Agonism for Proliferation (AID 2282667)
Conditions: T47D proliferation, impedance (xCELLigence), 80 h
Results filed as inconclusive are left out. Calls of active or inactive are those of the source. Rule for the calls: active = hit-call score of the fitted dose curve at least 0.9, where 1 is the maximum; inconclusive = response in the unintended direction; inactive = score below 0.9.
# valid calls are active, inactive; nothing else

COMPOUND | CLASS ASSIGNMENT
NN=C(N)N | inactive
Fc1ccc(C2(Cn3cncn3)OC2c2ccccc2Cl)cc1 (stereo not drawn) | inactive
NNC(=S)NN | inactive
C[C@H]1CCCC(=O)CCC/C=C/c2cc(O)cc(O)c2C(=O)O1 | active
O=S(=O)(c1ccc(Cl)cc1)c1ccc(Cl)cc1 | inactive
CC(=[OH+])/C=C(/C)[O-].CC(=[OH+])/C=C(/C)[O-].CC(=[OH+])/C=C(/C)[O-].[Fe] | inactive
CC(C)CCCCCCOC(=O)c1ccccc1C(=O)OCCCCCCC(C)C | inactive
CNC(=O)O/N=C/C(C)(C)S(C)=O (stereo not drawn) | inactive

Dear all, I need the recorded test outcome for O=C(NCO)NCO , thank you. inactive

Please share the test call associated with CCc1ccccc1C . active

Check the results log: what was the call for COc1cc(OC)nc(NC(=O)NS(=O)(=O)c2ncccc2C(=O)N(C)C)n1 ? inactive

Outcome logged for CC(=O)C=C(C)C in this assay: active

Returns: the outcome recorded for CC(=O)OC(c1ccccc1)C(Cl)(Cl)Cl (stereo not drawn) in this assay. inactive

----------
Read-out: Collagen III, COL3A1 (gene 1281)
Assay: BSK_hDFCGF_CollagenIII: BioMAP Diversity Plus: hDFCGF Assay for Collagen III Biomarker Activity (AID 2283056)
Conditions: primary human foreskin fibroblasts; actives raise or lower the signal
Activity calls are given as the source filed them. How the source made its calls: active means hit-call score of the fitted dose curve at least 0.9, where 1 is the maximum; inactive means score below 0.9.
I would appreciate it if you answered using one of these outcomes: Y (active), N (inactive)

COMPOUND | CLASS ASSIGNMENT
Oc1cccc2cccnc12 | Y
O=c1[nH]c(=O)[nH]c(=O)[nH]1 | N
C(=NC1CCCCC1)=NC1CCCCC1 | Y
COc1cc(-c2ccc(N)c(OC)c2)ccc1N | N
O=C(OC1CCCCC1)c1ccccc1C(=O)OC1CCCCC1 | Y

Outcome logged for ClC(Cl)=C(Cl)C(Cl)=C(Cl)Cl in this assay: Y

Which result was noted for this compound in the test: NC(=S)Nc1ccccc1 N

// param item: Nc1ccc(-c2ccc(N)c(Cl)c2)cc1Cl ; yields the recorded call N

Per the assay record, what outcome was assigned to ClC1=C(Cl)[C@]2(Cl)[C@H]3[C@H]([C@H]4C=C[C@H]3C4)[C@@]1(Cl)C2(Cl)Cl ? Y

Hi, sorry to bother you, what did the test record for BrCCBr ? N
